Test target: HNRNPAB (UniProt Q99729)
Sequence (Q99729 whole entry): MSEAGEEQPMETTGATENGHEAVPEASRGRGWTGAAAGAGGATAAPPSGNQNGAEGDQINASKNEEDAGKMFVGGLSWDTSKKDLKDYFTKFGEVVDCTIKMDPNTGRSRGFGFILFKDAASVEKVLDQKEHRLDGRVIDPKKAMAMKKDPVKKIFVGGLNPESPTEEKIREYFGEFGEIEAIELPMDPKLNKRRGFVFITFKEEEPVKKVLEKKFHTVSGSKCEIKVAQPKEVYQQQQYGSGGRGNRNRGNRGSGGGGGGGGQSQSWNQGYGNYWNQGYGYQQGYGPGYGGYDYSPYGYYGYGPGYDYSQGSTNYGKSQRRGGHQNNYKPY
Assay: EC50 of free RNA motif oligo competing protein binding to immobilised probe
Below, each of the sequences is paired with its reported pEC50 value.
Lab note — pEC50 values are minus log10 of concentrations in M.

{"columns": ["Seq text", "Measurement"],
 "data": [
  ["AAUAAA", 5.52]
]}

Input "UAUUUAU" . Output pEC50: 5.51

###

Test target: SRSF11 (UniProt Q05519)
Sequence: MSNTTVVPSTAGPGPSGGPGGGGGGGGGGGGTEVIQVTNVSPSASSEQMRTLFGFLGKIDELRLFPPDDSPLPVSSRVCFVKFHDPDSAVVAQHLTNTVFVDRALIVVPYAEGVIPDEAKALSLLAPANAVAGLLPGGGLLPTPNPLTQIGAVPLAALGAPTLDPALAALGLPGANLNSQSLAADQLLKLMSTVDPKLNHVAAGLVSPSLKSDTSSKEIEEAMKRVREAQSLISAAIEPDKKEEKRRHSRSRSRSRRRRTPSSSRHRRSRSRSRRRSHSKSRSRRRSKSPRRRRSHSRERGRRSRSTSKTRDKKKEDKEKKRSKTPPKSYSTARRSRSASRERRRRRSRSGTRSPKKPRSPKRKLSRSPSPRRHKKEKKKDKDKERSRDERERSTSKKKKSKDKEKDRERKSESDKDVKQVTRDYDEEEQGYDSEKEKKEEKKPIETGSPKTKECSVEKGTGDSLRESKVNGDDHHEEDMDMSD
Assay: EC50 of free RNA motif oligo competing protein binding to immobilised probe
Readout name: EC50 (nM)
Your answer is read as nM, so omit the unit and give the number.

Input "AAUAAA" . Output EC50: 1110

###

Test target: HMGB2 (UniProt P26583)
Sequence: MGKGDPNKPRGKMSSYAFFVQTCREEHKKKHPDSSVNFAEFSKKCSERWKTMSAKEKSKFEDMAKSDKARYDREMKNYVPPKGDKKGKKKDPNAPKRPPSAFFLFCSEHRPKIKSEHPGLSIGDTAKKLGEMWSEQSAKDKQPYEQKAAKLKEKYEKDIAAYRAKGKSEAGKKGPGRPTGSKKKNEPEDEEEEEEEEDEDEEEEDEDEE
Assay: Kd (EC50 corrected by depletion factor)
Readout name: Kd (nM)
Your answer is read as nM, so omit the unit and give the number.

Input "AAUAAA" . Output Kd: 2.05

###

Test target: RPS16 (UniProt P62249)
Assay: Kd (EC50 corrected by depletion factor)
Below, each of the sequences is paired with its reported Kd value.
Your answer is read as nM, so omit the unit and give the number.

{"columns": ["Seq text", "Test target", "Units of measure", "Measurement"],
 "data": [
  ["AAUAAA", "RPS16 (UniProt P62249)", "nM", 349]
]}

# evaluate next
Input "CUGUCCU" . Output Kd: 77

###

Below, each of the sequences is paired with its reported EC50 value.
Test target: DHX36 (UniProt Q9H2U1)
Sequence: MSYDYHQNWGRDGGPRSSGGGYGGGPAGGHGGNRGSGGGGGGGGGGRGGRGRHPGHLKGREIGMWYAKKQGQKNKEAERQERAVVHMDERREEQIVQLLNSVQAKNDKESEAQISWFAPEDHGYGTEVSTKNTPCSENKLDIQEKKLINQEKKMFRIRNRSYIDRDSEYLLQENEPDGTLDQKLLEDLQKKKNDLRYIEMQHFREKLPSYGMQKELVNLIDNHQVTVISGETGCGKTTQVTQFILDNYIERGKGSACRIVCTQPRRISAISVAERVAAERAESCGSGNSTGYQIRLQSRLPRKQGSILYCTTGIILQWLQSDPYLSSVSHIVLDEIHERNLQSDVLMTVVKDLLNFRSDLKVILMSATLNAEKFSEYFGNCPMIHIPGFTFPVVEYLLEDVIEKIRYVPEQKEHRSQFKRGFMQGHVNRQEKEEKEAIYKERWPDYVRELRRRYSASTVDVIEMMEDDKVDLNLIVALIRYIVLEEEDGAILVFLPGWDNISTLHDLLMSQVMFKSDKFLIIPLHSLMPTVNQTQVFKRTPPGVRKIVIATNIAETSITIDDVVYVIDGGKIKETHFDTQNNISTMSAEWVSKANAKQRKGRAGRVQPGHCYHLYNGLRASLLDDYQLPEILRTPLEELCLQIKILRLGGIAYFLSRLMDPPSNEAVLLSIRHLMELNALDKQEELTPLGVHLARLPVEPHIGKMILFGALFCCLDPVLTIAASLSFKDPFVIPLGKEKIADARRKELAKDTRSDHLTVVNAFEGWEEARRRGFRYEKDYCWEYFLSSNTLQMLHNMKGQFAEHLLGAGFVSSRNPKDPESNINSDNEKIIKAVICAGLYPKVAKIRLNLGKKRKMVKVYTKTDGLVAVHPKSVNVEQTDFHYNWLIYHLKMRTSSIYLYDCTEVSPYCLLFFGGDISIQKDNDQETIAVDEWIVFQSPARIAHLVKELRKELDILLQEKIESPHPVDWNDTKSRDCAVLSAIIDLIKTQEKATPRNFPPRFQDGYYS
Assay: EC50 of free RNA motif oligo competing protein binding to immobilised probe

Answered cases to consult:
{"columns": ["Seq text", "Measurement"],
 "data": [
  ["CUGUCCU", "5.03 µM"],
  ["AAUAAA", "3.29 µM"]
]}

# evaluate next
Input "UAUUUAU" . Output EC50: 1.01 µM
